Catalogue of MIC90 values
Tested on: Candida albicans
Experiment: Antimicrobial activity against Candida albicans grown as planktonic cell by broth microdilution method
Assay type: functional
Numbered stars: 1 amine (or outer) side, 2 acyl side, 3 side chain; on linkers, the order of the positions; unused ones are H or OH. Bridge positions count the residues as written; N and C are the ends. Square brackets hold non-standard residues; d marks the D form. Peptide text beside a SMILES is read from it. * marks the point of attachment. pTerphenylCO(4''-OnC5H11) = CCCCCOc1ccc(-c2ccc(-c3ccc(C(=O)*)cc3)cc2)cc1; Orn(4R-OH,5R-OH) = O=C([C@H](C[C@@H](O)[C@@H](O)N[*:3])N[*:1])[*:2]; hTyr(3S-OH,4S-OH) = N[C@H](C(=O)O)[C@H](O)[C@@H](O)c1ccc(O)cc1; Pro(3S-OH,4S-Me) = C[C@H]1CN[C@H](C(=O)O)[C@H]1O; Hyp = O=C(O)[C@@H]1C[C@@H](O)CN1

{"compound": "C[C@@H](c1ncncc1F)[C@](O)(Cn1cncn1)c1ccc(F)cc1F", "targetSystem": "Candida albicans", "unitSymbol": "µg/mL", "censoringSign": ">", "MIC90": 0.06}
{"compound": "C[C@@H]1[C@H](O)[C@@H](C)/C=C/C=C/C=C/C=C/C=C/C=C/C=C/[C@H](O[C@@H]2O[C@H](C)[C@@H](O)[C@H](N)[C@@H]2O)C[C@@H]2O[C@](O)(C[C@@H](O)C[C@@H](O)[C@H](O)CC[C@@H](O)C[C@@H](O)CC(=O)O[C@H]1C)C[C@H](O)[C@H]2C(=O)O", "targetSystem": "Candida albicans", "unitSymbol": "µg/mL", "censoringSign": "=", "MIC90": 0.25}
{"compound": "CC[C@H](C)C[C@H](C)CCCCCCCCC(=O)N[C@H]1C[C@@H](O)[C@@H](NCCN)NC(=O)[C@@H]2[C@@H](O)CCN2C(=O)[C@H]([C@H](O)CCN)NC(=O)[C@H]([C@H](O)[C@@H](O)c2ccc(O)cc2)NC(=O)[C@@H]2C[C@@H](O)CN2C(=O)[C@H]([C@@H](C)O)NC1=O", "targetSystem": "Candida albicans", "unitSymbol": "µg/mL", "censoringSign": "=", "MIC90": 0.5}
{"compound": "CCCCCOc1ccc(-c2ccc(-c3ccc(C(=O)N[C@H]4C[C@@H](O)[C@@H](O)NC(=O)[C@@H]5[C@@H](O)[C@@H](C)CN5C(=O)[C@H]([C@@H](C)O)NC(=O)[C@H]([C@H](O)[C@@H](O)c5ccc(O)cc5)NC(=O)[C@@H]5C[C@@H](O)CN5C(=O)[C@H]([C@@H](C)O)NC4=O)cc3)cc2)cc1 [ANIDULAFUNGIN] ({pTerphenylCO(4''-OnC5H11)}-[Orn(4R-OH,5R-OH)]T[Hyp][hTyr(3S-OH,4S-OH)]T[Pro(3S-OH,4S-Me)]; lactam 1-C)", "targetSystem": "Candida albicans", "unitSymbol": "µg/mL", "censoringSign": "=", "MIC90": 0.125}

Data origin: ChEMBL document CHEMBL1275424
